# System: E. coli (25922)
# Assay overview: MIC assay (Table 1)
# Format: cell-based
# Cond: Escherichia coli, isolate 25922
Experimental readout: MIC50 (µg/mL)
# number only, unit µg/mL dropped from output

These recorded examples may help you get a feel for the data.
[
  {
    "Smiles entry": "NCCCOc1cc(-c2ccc3ccc(-c4cc(OCCCN)c(OCCCN)c(OCCCN)c4)cc3c2)cc(OCCCN)c1OCCCN",
    "Units text": "µg/mL",
    "MIC50": 3.13
  },
  {
    "Smiles entry": "N=C(N)NCCCOc1cc(-c2cn(-c3cccc(OCCCNC(=N)N)c3)nn2)cc(-c2cn(-c3cccc(OCCCNC(=N)N)c3)nn2)c1",
    "Units text": "µg/mL",
    "MIC50": 25
  },
  {
    "Smiles entry": "N=C(N)NCCCOc1cc(OCCCNC(=N)N)cc(-c2ccc3ccc(-c4cc(OCCCNC(=N)N)cc(OCCCNC(=N)N)c4)cc3c2)c1",
    "Units text": "µg/mL",
    "MIC50": 1.56
  },
  {
    "Smiles entry": "NCCCOc1cc(OCCCN)cc(-c2cc(-c3cc(OCCCN)cc(OCCCN)c3)cc(-c3cc4ccccc4[nH]3)c2)c1",
    "Units text": "µg/mL",
    "MIC50": 6.25
  }
]

Data request: Supply measured MIC50 of "NCCCOc1cc(-c2cc(-c3ccccc3)cc(-c3cc(OCCCN)c(OCCCN)c(OCCCN)c3)c2)cc(OCCCN)c1OCCCN" in your reply.
Data returned: 6.25
